system.tested: recombinant human aminopeptidase N (hAPN) (human) (UniProt P15144)
experiment.description: enzyme inhibition assay (competition with the fluorogenic substrate H-Ala-AMC); 0.1 μM APN, 100 μM H-Ala-AMC, 100 mM Tris pH 7.2, Brij 35 0.0002% w/v, 37 °C, triplicate; inhibition competitive, Ki from the IC50 by the Cheng-Prusoff equation
Positions of bridges follow the written chain, without caps; N, C: chain ends. No end group written: not given here. *: point of attachment. Cbz = O=C(OCc1ccccc1)*; For = O=C*
recorded.metric: Ki

INSERT INTO measurements (binder, recorded_metric, test_value) VALUES
  ('Ac-HSPW [Ac-HSPW]', 'Ki', '> 500 µM'),
  ('Ac-LHSPW [Ac-LHSPW]', 'Ki', '> 500 µM'),
  ('CLHSPC (disulfide 1-6) [cyc-LHSP]', 'Ki', '121 µM'),
  ('CLHSPWC (disulfide 1-7) [cyc-LHSPW]', 'Ki', '24.7 µM'),
  ('CAHSPWC (disulfide 1-7) [cyc-AHSPW]', 'Ki', '> 500 µM'),
  ('Cbz-LHSPW [Cbz-LHSPW]', 'Ki', '> 500 µM'),
  ('For-LHSPW [For-LHSPW]', 'Ki', '> 500 µM'),
  ('Cbz-HSPW [Cbz-HSPW]', 'Ki', '> 500 µM');

These data points were gathered from paper PMC5431086.
